Test: folding stability dG unfold from chymotrypsin proteolysis; higher = more stable
Give True when the value for folding stability dG unfold is at least 0.4 kcal/mol. Give False when it is less.

Req: Item SAGGSAGGSVEELLAAATSEDPAKGLARAELPSGATATVDPAAGTVTITFTSPGTPSTTTVPAPSAGGSAGG [r6_793_JUSTAS] with folding stability dG unfold of 0.4 kcal/mol or above?
Resp: False

Req: Next sequence: SAGGKKKKVVIKLPSTNKAVEAELVSVKKGKNKYYLEIKLPNGKKYKFPLEVIGDFKWDEGEGTLEVPSAGG [r13_211_TrMRF]
Resp: True

Req: Next sequence: SMSVEISVPPTNPGASPEEIAAALAAKGRPVEVVSVSEDPSTGTRTVTIAVRAPDGTLEETVVVNAPVGVSA [r9_879_JUSTAS]
Resp: False

Req: Next sequence: SAGGSAGGSAGGKVKVLSVFELPNNKRLVLIETPSGKKILIVTDSSDPDKVKEKAKEIASAGGSAGGSAGGS [r10_472_TrMRF]
Resp: True

Req: Next sequence: SVEELAKKLAELFPNVKVTVTEEEIDGKKVKTIRIENKKTGKTYEITVLPNGEILITDSNGKKFSLEELLSA [r9_1176_TrROS_Hall]
Resp: True

Req: Next sequence: SAGGSAEEEVETVTLTVTVTVPPAPEVEVVSVEVERLPDGTLRVRAVVRLKDVPDRFVEVELTIRPSAGGSA [r15_627_TrROS_Hall]
Resp: True

Req: Next sequence: SAGGSAGGPKKIKITNIEYPNGYWRVKISLPNGKEVEYPMDSPDDALDWAEDDGIKEVEIEKYNSAGGSAGG [r6_601_TrROS]
Resp: False
